target: T1, human plasma Kallikrein (human, UniProt P03952 20-638, limits assumed); assay: enzyme inhibition assay
T1 construct: also called hPK; human PK
T1 sequence (P03952 20-638 limits assumed): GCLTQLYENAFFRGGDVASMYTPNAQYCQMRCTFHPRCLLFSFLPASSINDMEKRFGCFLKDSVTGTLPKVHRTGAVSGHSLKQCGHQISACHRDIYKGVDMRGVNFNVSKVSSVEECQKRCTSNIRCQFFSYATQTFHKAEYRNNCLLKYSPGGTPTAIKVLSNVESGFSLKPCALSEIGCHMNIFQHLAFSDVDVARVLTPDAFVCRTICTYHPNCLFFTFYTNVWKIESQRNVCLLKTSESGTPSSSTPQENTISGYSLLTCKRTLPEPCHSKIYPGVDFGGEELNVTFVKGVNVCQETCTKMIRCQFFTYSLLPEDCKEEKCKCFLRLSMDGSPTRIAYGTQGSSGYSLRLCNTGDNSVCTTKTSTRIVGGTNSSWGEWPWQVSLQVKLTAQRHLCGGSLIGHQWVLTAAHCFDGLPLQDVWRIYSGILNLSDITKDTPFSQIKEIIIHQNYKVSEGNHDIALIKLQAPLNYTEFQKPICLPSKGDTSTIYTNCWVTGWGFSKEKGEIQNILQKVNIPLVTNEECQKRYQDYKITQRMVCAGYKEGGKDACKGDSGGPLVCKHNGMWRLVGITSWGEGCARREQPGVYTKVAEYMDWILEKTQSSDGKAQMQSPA
Numbered stars: 1 amine (or outer) side, 2 acyl side, 3 side chain; on linkers, the order of the positions; unused ones are H or OH. Bridge positions count the residues as written; N and C are the ends. Square brackets hold non-standard residues; d marks the D form. Ends that are not written are not given here. TBMB = c1c(C[*:1])cc(C[*:3])cc1C[*:2]; NMeS = CN[C@@H](CO)C(=O)O; Sar = CNCC(=O)O

{"columns": ["Binder", "Units Label", "Ki"],
 "data": [
  ["AC[NMeS]WPARCLHQDLCA (linker 2-8-14 via TBMB; not fully specified (N-terminus, C-terminus)) [06-34-18 -N-MeSer1]", "nM", 0.56],
  ["ACAWPARCAHQDLCA (linker 2-8-14 via TBMB; not fully specified (N-terminus, C-terminus), also called R1A/V6A) [06-34-03 - Ala1,6]", "nM", 0.147],
  ["AC[Sar]WPARC[Sar]HQDLCA (linker 2-8-14 via TBMB; not fully specified (N-terminus, C-terminus), also called AC N-MeGWPARCN-MeGHQDLCA) [06-34-03 - N-MeGly1,6]", "nM", 24.8],
  ["ACSWPARCLHQDLCA (linker 2-8-14 via TBMB; not fully specified (N-terminus, C-terminus)) [06-34-18 (01 + 05)]", "nM", 0.04]
]}
